Test system: Cynomolgus monkey
Test name: Metabolic stability in cynomolgus monkey intestine S9 fraction
Assay type: ADME, Macaca fascicularis
Reported endpoint: Stability (%)

# Compound, Observed
rows = [
    ("CCOC(=O)[C@H](C)NP(=O)(OC[C@H]1C=C[C@@H](n2cnc3c(N)ncnc32)C1)Oc1ccccc1 (stereo partly drawn)", 39),
    ("COC(=O)[C@H](CCCCN)NP(=O)(OC[C@H]1C=C[C@@H](n2cnc3c(N)ncnc32)C1)Oc1ccccc1.O=C(O)C(F)(F)F (stereo partly drawn)", 17),
    ("CC[C@H](C)[C@H](NP(=O)(OC[C@H]1C=C[C@@H](n2cnc3c(N)ncnc32)C1)Oc1ccccc1)C(=O)OC (stereo partly drawn)", 69),
]

Entry source: ChEMBL document CHEMBL1138881
